# METHOD_DESCRIPTION: self-splicing fitness, log relative to wild type (ln ratio); higher = more splicing; Tetrahymena group I intron in knt gene, E. coli kanamycin selection, DiMSum; sequences stand for … in CUCUCU…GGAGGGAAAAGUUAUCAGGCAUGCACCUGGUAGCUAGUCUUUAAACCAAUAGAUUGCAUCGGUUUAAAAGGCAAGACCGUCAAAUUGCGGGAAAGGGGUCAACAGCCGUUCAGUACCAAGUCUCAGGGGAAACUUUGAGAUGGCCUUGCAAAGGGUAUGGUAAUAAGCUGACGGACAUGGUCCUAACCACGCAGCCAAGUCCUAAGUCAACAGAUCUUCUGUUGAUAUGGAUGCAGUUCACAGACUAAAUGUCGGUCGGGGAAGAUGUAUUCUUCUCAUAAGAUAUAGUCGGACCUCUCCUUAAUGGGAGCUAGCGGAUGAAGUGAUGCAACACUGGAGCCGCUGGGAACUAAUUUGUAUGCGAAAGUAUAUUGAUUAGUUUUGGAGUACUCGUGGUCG;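 further: selection with 25 µg/mL kanamycin versus none on LB agar overnight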
# SETUP_CONDITIONS: 37 °C
Listing of recorded self-splicing fitness (ln) by entry.
Give the figure by itself; no unit, no explanation.

Would you please look over these solved cases?
| CONSTRUCT_SEQUENCE | self-splicing fitness (ln) |
| --- | --- |
| AGCAAGCAAUAUUACGAAAA | -2.39 |
| CAACAGCAAUAUUACGAAGA | -2.35 |
| UAUCAGCAAUAUUACGUUUG | -0.266 |
| AGGAAGCAAUAUUACGCAGC | -1.47 |
| AAGUAGCAAUAUUACGUAUU | -1.07 |
| UUGCAGCAAUAUUACGCAAU | -1.86 |
| UACGAGCAAUAUUACGGCCU | -3.77 |
| UCCCAGCAAUAUUACGACGC | -0.519 |

(Q) What value of self-splicing fitness (ln) has been reported for the following sequence? `CACCAGCAAUAUUACGUCCA`
(A) -2.26

* * *

# METHOD_DESCRIPTION: self-splicing fitness, log relative to wild type (ln ratio); higher = more splicing; Tetrahymena group I intron in knt gene, E. coli kanamycin selection, DiMSum; sequences stand for … in CUCUCU…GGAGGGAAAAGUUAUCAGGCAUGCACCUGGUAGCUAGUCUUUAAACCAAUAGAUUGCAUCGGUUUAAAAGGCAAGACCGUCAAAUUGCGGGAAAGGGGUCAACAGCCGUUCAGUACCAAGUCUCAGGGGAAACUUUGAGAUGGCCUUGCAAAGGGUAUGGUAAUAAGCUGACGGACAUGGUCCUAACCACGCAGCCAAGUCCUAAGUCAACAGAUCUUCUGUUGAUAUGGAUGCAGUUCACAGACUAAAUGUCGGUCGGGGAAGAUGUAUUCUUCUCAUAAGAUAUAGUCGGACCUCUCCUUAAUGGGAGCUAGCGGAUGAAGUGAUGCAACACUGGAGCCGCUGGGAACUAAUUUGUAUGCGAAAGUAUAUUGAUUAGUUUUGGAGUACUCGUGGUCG
# SETUP_CONDITIONS: 30 °C
OBSERVABLE: self-splicing fitness (ln)
Give the figure by itself; no unit, no explanation.

| CONSTRUCT_SEQUENCE | OBSERVABLE | VALUE_REPORTED |
| --- | --- | --- |
| AAUCAGCAAUAUUACGCGCG | self-splicing fitness (ln) | 0.0814 |
| GAACAGCAAUAUUACGUCAU | self-splicing fitness (ln) | -0.993 |
| CCACAGCAAUAUUACGCACG | self-splicing fitness (ln) | -0.551 |

(Q) What value of self-splicing fitness (ln) has been reported for the following sequence? `CCCUAGCAAUAUUACGAGUC`
(A) -3.63

(Q) What value of self-splicing fitness (ln) has been reported for the following sequence? `CCGUAGCAAUAUUACGCGCA`
(A) -3.09

(Q) What value of self-splicing fitness (ln) has been reported for the following sequence? `UAGGAGCAAUAUUACGUCCU`
(A) -1.63

(Q) What value of self-splicing fitness (ln) has been reported for the following sequence? `CAGGAGCAAUAUUACGCGUA`
(A) -2.85

(Q) What value of self-splicing fitness (ln) has been reported for the following sequence? `UUACAGCAAUAUUACGAAGG`
(A) -3.54

(Q) What value of self-splicing fitness (ln) has been reported for the following sequence? `AGUGAGCAAUAUUACGCUGU`
(A) -3.12

(Q) What value of self-splicing fitness (ln) has been reported for the following sequence? `UUCGAGCAAUAUUACGGGGU`
(A) -2.88

(Q) What value of self-splicing fitness (ln) has been reported for the following sequence? `AACCAGCAAUAUUACGCCGA`
(A) -0.252

(Q) What value of self-splicing fitness (ln) has been reported for the following sequence? `AAAUAGCAAUAUUACGAUGU`
(A) -1.21

(Q) What value of self-splicing fitness (ln) has been reported for the following sequence? `UGGUAGCAAUAUUACGCUGC`
(A) -2.89

(Q) What value of self-splicing fitness (ln) has been reported for the following sequence? `AUCCAGCAAUAUUACGUUCC`
(A) -1.19

(Q) What value of self-splicing fitness (ln) has been reported for the following sequence? `GCGUAGCAAUAUUACGUUAU`
(A) -3.72

(Q) What value of self-splicing fitness (ln) has been reported for the following sequence? `CUUCAGCAAUAUUACGUCAG`
(A) -0.735

(Q) What value of self-splicing fitness (ln) has been reported for the following sequence? `CCAUAGCAAUAUUACGCAUU`
(A) -3.65

(Q) What value of self-splicing fitness (ln) has been reported for the following sequence? `AUCCAGCAAUAUUACGUUGA`
(A) -1.6

(Q) What value of self-splicing fitness (ln) has been reported for the following sequence? `CUGAAGCAAUAUUACGCCUU`
(A) -4.07
